Target: HIV reverse transcriptase (Human immunodeficiency virus type 1 group M subtype B, UniProt P03366)
Test: Reverse transcriptase scintillation proximity assay (Example 4, Table 2)
Type: biochemical
Conditions: 0.05 h, 10 μM inhibitor; relative to dimethyl sulfoxide = 100%; read-out: % RT activity remaining at 10 μM
Measured remaining activity at 10 µM, listed per entry.
Answer in %, number only, no unit symbol.

Consider the reported remaining activity at 10 µM for these compounds:
compound | units.text | numeric.result
Nc1cccc2c(NC(=O)Nc3ccc4c(O)cc(S(=O)(=O)O)cc4c3)cccc12 [Compound 19] | % | 80
O=C(Nc1ccc2c(S(=O)(=O)O)cccc2c1)Nc1ccc2c(S(=O)(=O)O)cccc2c1 [Compound 81] | % | 78
O=C(Nc1ccc2ccccc2c1)Nc1ccc2c(O)cc(S(=O)(=O)O)cc2c1 [Compound 13] | % | 82

Now turn to the next compound.
Lookup: Item under review: O=C(O)CCCc1ccc(N=Nc2c(S(=O)(=O)O)cc3cc(Nc4c(Nc5ccc6c(O)c(N=Nc7ccc(CCCC(=O)O)cc7)c(S(=O)(=O)O)cc6c5)c(=O)c4=O)ccc3c2O)cc1 [Compound 189] . Reported remaining activity at 10 µM?
Found: 1

---

Molecular target: HIV integrase (Human immunodeficiency virus type 1 group M subtype B, UniProt P04585)
Assay: biochemical
Settings: read-out: Inhibition of 3' processing activity (IC50)
quantity: IC50

Completed entries (count: 3):
compound | assayed.target | result
Cc1cc(C(=O)O)ccc1N=Nc1c(S(=O)(=O)O)cc2cc(NC(=O)C(=O)Nc3ccc4c(O)c(N=Nc5ccc(C(=O)O)cc5C)c(S(=O)(=O)O)cc4c3)ccc2c1O [Compound 103] | HIV integrase (Human immunodeficiency virus type 1 group M subtype B, UniProt P04585) | < 1 µM
O=C(Nc1ccc2c(O)c(N=Nc3ccc(CP(=O)(O)O)cc3)c(S(=O)(=O)O)cc2c1)Nc1ccc2c(O)c(N=Nc3ccc(CP(=O)(O)O)cc3)c(S(=O)(=O)O)cc2c1 [Compound 61] | HIV integrase (Human immunodeficiency virus type 1 group M subtype B, UniProt P04585) | > 3 µM
O=C(Nc1ccc2c(O)c(N=Nc3cnc4ccccc4c3)c(S(=O)(=O)O)cc2c1)Nc1ccc2c(O)c(N=Nc3cnc4ccccc4c3)c(S(=O)(=O)O)cc2c1 [Compound 37] | HIV integrase (Human immunodeficiency virus type 1 group M subtype B, UniProt P04585) | > 3 µM

Shifting focus to the compound that follows.
Lookup: What IC50 value was documented for this compound, COC(=O)/C=C/c1ccc(N=Nc2c(S(=O)(=O)O)cc3cc(NC(=O)Nc4ccc5c(O)c(N=Nc6ccc(/C=C/C(=O)OC)cc6)c(S(=O)(=O)O)cc5c4)ccc3c2O)cc1 [Compound 56] ?
Found: > 3 µM

---

Molecular target: UniProtKB P03366
Assay: Reverse transcriptase scintillation proximity assay (Example 4, Table 2)
Assay type: biochemical
Conditions: 0.05 h, 10 μM inhibitor; relative to dimethyl sulfoxide = 100%; read-out: % RT activity remaining at 10 μM
Field 'label' (enum: condition met / condition not met). Set to condition met when remaining activity at 10 µM is strictly under 2%; else condition not met.

Lookup: Does O=C(Nc1ccc2c(O)cc(S(=O)(=O)O)cc2c1)c1cc(O)cc(C(=O)Nc2ccc3c(O)cc(S(=O)(=O)O)cc3c2)n1 have remaining activity at 10 µM strictly under 2%?
Found: condition not met

Lookup: A record lists CCOC(=O)c1ccc(N=Nc2c(S(=O)(=O)O)cc3cc(NC(=O)Nc4ccc5c(O)c(N=Nc6ccc(C(=O)OCC)cc6)c(S(=O)(=O)O)cc5c4)ccc3c2O)cc1 . Is its remaining activity at 10 µM below 2%?
Found: condition not met

Lookup: Field: below-cutoff. Rule: recorded remaining activity at 10 µM strictly less than 2%. Subject: O=C(O)Cc1ccc(N=Nc2c(S(=O)(=O)O)cc3cc(Nc4c(Nc5ccc6c(O)c(N=Nc7ccc(CC(=O)O)cc7)c(S(=O)(=O)O)cc6c5)c(=O)c4=O)ccc3c2O)cc1
Found: condition met

Lookup: hey, is remaining activity at 10 µM for O=C(Nc1ccc2cc(S(=O)(=O)O)cc(O)c2c1)Nc1ccc2cc(S(=O)(=O)O)cc(O)c2c1 lower than 2% or not?
Found: condition not met

Lookup: Input O=C(O)c1ccc(N=Nc2c(S(=O)(=O)O)cc3cc(Nc4c(Nc5ccc6c(O)c(N=Nc7ccc(C(=O)O)cc7)c(S(=O)(=O)O)cc6c5)c(=O)c4=O)ccc3c2O)cc1 ; condition: remaining activity at 10 µM strictly below 2%. Does it hold?
Found: condition met

Lookup: Quick check: remaining activity at 10 µM of O=C(Nc1ccc2c(O)c(N=Nc3cccc([N+](=O)[O-])c3)c(S(=O)(=O)O)cc2c1)Nc1ccc2c(O)c(N=Nc3cccc([N+](=O)[O-])c3)c(S(=O)(=O)O)cc2c1 under 2%?
Found: condition not met

Lookup: Could you please tell me whether remaining activity at 10 µM recorded for COc1cc(C(=O)O)c(N=Nc2c(S(=O)(=O)O)cc3cc(NC(=O)Nc4ccc5c(O)c(N=Nc6c(C(=O)O)cc(OC)c(OC)c6OC)c(S(=O)(=O)O)cc5c4)ccc3c2O)c(OC)c1OC is less than 2%?
Found: condition met

Lookup: Criterion: remaining activity at 10 µM strictly below 2%. Is it met by O=C(Nc1ccc2c(O)cc(S(=O)(=O)O)cc2c1)c1ccccc1 ?
Found: condition not met

---

Target: HIV integrase (Human immunodeficiency virus type 1 group M subtype B, UniProt P04585)
Experiment: biochemical
Conditions: read-out: Inhibition of strand transfer (IC50)
Listed here are molecules together with their documented pIC50.
FYI, pIC50 means -log10 of a concentration in mol per litre.

structure.string | pIC50
O=C(Nc1ccc2c(O)c(N=Nc3ccc(F)cc3)c(S(=O)(=O)O)cc2c1)Nc1ccc2c(O)c(N=Nc3ccc(F)cc3)c(S(=O)(=O)O)cc2c1 | 6.05
O=C(O)CCCc1ccc(N=Nc2c(S(=O)(=O)O)cc3cc(NC(=O)Nc4ccc5c(O)c(N=Nc6ccc(CCCC(=O)O)cc6)c(S(=O)(=O)O)cc5c4)ccc3c2O)cc1 | 6.00
O=C(O)Cc1ccc(N=Nc2c(S(=O)(=O)O)cc3cc(NC(=O)Nc4ccc5c(O)c(N=Nc6ccc(CC(=O)O)cc6)c(S(=O)(=O)O)cc5c4)ccc3c2O)cc1 | 6.15

Would you kindly look at the next entry?
Lookup: Which measured pIC50 value corresponds to O=C(Nc1ccc2c(O)c(N=Nc3ccc4oc(=O)ccc4c3)c(S(=O)(=O)O)cc2c1)Nc1ccc2c(O)c(N=Nc3ccc4oc(=O)ccc4c3)c(S(=O)(=O)O)cc2c1 ?
Found: 6.00

---

Molecular target: HIV integrase (Human immunodeficiency virus type 1 group M subtype B, UniProt P04585)
Experiment: biochemical
Conditions: read-out: Inhibition of strand transfer (IC50)
pIC50: −log10 of the molar value.
quantity: pIC50

Would you please look over these solved cases?
structure.string | pIC50
O=C(Nc1ccc2c(O)c(N=Nc3cnc4ccccc4c3)c(S(=O)(=O)O)cc2c1)Nc1ccc2c(O)c(N=Nc3cnc4ccccc4c3)c(S(=O)(=O)O)cc2c1 | < 5.52
COc1cc(N=Nc2c(S(=O)(=O)O)cc3cc(NC(=O)Nc4ccc5c(O)c(N=Nc6cc(OC)cc(OC)c6)c(S(=O)(=O)O)cc5c4)ccc3c2O)cc(OC)c1 | < 5.52
CCOC(=O)c1cccc(N=Nc2c(S(=O)(=O)O)cc3cc(NC(=O)Nc4ccc5c(O)c(N=Nc6cccc(C(=O)OCC)c6)c(S(=O)(=O)O)cc5c4)ccc3c2O)c1 | < 4.70

Lookup: Any idea what pIC50 was measured for Cc1cc(C(=O)O)ccc1N=Nc1c(S(=O)(=O)O)cc2cc(NC(=O)C(=O)Nc3ccc4c(O)c(N=Nc5ccc(C(=O)O)cc5C)c(S(=O)(=O)O)cc4c3)ccc2c1O ?
Found: > 6.00

---

Below is a list of entries, each paired with its recorded remaining activity at 10 µM value.
Molecular target: HIV reverse transcriptase (Human immunodeficiency virus type 1 group M subtype B, UniProt P03366)
Experiment: Reverse transcriptase scintillation proximity assay (Example 4, Table 2)
Assay type: biochemical
Settings: 0.05 h, 10 μM inhibitor; relative to dimethyl sulfoxide = 100%; read-out: % RT activity remaining at 10 μM
Answer in %, number only, no unit symbol.

compound | quantity | numeric.result
COC(=O)c1cc(NC(=O)Nc2ccc3cc(S(=O)(=O)O)cc(O)c3c2)cc(C(=O)OC)c1 [Compound 27] | remaining activity at 10 µM | 80

Lookup: // remaining activity at 10 µM lookup, key: O=C(O)c1cc(N=Nc2c(S(=O)(=O)O)cc3cc(NC(=O)c4ccc(C(=O)Nc5ccc6c(O)c(N=Nc7cc(C(=O)O)cc(C(=O)O)c7)c(S(=O)(=O)O)cc6c5)cc4)ccc3c2O)cc(C(=O)O)c1 [Compound 178]
Found: 91

Lookup: Could you share which remaining activity at 10 µM value was measured for COC(=O)C(Cc1c[nH]c2ccccc12)NC(=O)Nc1ccc2c(O)cc(S(=O)(=O)O)cc2c1 (centres unmarked) [Compound 17] ?
Found: 82

Lookup: Entry under review: O=C(Nc1ccc2c(O)cc(S(=O)(=O)O)cc2c1)Nc1cccc2c1C(=O)c1ccccc1C2=O [Compound 20] . Reported remaining activity at 10 µM?
Found: 86

Lookup: Param item = CCOC(=O)c1ccc(NC(=O)Nc2ccc3c(O)cc(S(=O)(=O)O)cc3c2)cc1 [Compound 25] ; retrieve measured remaining activity at 10 µM.
Found: 86
